- Tested On: UniProtKB P47712
- Sequence (P47712 1-749): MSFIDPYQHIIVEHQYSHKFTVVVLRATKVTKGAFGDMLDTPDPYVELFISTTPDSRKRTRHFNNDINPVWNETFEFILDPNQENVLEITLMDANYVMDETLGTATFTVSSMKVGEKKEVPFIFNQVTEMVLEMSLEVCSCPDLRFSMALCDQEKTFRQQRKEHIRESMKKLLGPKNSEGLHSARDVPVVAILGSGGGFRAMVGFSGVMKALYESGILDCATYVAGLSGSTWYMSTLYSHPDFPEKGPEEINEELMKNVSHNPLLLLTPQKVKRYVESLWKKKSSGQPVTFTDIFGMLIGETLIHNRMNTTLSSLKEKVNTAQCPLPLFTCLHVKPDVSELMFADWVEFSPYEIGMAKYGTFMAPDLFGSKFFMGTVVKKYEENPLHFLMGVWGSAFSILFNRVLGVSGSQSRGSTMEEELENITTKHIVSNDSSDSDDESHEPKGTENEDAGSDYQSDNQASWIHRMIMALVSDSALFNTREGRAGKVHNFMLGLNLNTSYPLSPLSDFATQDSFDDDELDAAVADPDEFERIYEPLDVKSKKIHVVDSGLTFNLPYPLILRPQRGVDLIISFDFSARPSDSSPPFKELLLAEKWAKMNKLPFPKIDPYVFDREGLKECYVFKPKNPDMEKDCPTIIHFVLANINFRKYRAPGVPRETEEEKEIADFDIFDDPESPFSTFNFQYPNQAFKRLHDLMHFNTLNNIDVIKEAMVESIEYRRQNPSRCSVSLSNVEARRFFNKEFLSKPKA
Test Readout: IC50 (nM)
Only the number, expressed in nM, is required.

Below, each entry is followed by its recorded IC50 result.
{"Molecule": "O=C(O)c1ccc(CCCc2c(CCNS(=O)(=O)Cc3ccccc3)n(C(c3ccccc3)c3ccccc3)c3ccccc23)cc1", "Tested On": "UniProtKB P47712", "IC50 / nM": 320}
{"Molecule": "O=C(O)c1ccc(S(=O)(=O)CCc2c(CCNS(=O)(=O)Cc3ccccc3)n(C(c3ccccc3)c3ccccc3)c3ccc(Cl)cc23)cc1", "Tested On": "UniProtKB P47712", "IC50 / nM": 200}
{"Molecule": "N#Cc1ccc(CS(=O)(=O)NCCc2c(CCOc3ccc(C(=O)O)cc3)c3cc(Cl)ccc3n2C(c2ccccc2)c2ccccc2)cc1", "Tested On": "UniProtKB P47712", "IC50 / nM": 370}

The reported IC50 of the molecule O=C(O)c1ccc(OCCc2c(CCNS(=O)(=O)Cc3ccccc3)n(C(c3ccccc3)c3ccccc3)c3ccc(Cl)cc23)cc1 was 420

Reported IC50 ( O=C(O)c1ccc(OCCc2c(CCNS(=O)(=O)CCn3ncnn3)n(C(c3ccccc3)c3ccccc3)c3ccc(Cl)cc23)cc1 ) = 1100

// recorded IC50 for O=C(O)c1ccc(OCCc2c(CCNS(=O)(=O)Cc3ccc(Cl)c(Cl)n3)n(C(c3ccccc3)c3ccccc3)c3ccc(Cl)cc23)cc1 : 400

IC50 recorded for this molecule, Cc1ccccc1CS(=O)(=O)NCCc1c(CCCc2ccc(C(=O)O)cc2)c2cc(Cl)ccc2n1C(c1ccccc1)c1ccccc1 , is 180

Noted for O=C(O)c1ccc(OCCc2c(CCNS(=O)(=O)CCN3CCC4(CC3)OCCO4)n(C(c3ccccc3)c3ccccc3)c3ccc(Cl)cc23)cc1 : its IC50 reads 650

Data point: O=C(O)c1ccc(OCCc2c(CCNS(=O)(=O)Cc3ccccn3)n(C(c3ccccc3)c3ccccc3)c3ccc(Cl)cc23)cc1 ; IC50 = 2200

---

Target protein (sequence): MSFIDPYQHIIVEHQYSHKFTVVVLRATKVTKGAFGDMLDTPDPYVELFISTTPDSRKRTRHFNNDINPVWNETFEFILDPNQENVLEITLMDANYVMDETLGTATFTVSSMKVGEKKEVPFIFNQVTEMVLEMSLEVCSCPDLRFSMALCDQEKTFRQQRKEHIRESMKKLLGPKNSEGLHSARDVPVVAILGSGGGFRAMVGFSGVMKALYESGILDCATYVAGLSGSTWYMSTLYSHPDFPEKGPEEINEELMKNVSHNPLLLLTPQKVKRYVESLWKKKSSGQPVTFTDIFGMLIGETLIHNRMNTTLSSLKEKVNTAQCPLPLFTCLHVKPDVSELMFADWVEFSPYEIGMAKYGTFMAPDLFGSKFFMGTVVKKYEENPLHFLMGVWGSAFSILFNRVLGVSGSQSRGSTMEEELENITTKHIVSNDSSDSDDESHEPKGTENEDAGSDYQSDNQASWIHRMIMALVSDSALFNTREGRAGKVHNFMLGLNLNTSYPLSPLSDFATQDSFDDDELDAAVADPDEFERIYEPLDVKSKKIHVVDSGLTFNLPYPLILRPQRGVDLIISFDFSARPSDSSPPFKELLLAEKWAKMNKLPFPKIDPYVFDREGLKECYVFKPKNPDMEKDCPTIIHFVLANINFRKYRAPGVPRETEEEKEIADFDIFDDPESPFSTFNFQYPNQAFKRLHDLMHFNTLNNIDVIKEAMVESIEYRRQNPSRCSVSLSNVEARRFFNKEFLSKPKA
Test Readout: pIC50
Recall that pIC50 is obtained by taking minus log10 of the concentration measured in molar.

{"Compound": "O=C(O)c1ccc(OCCc2c(CCNS(=O)(=O)Cc3ccc(Cl)cc3Cl)n(C(c3ccccc3)c3ccccc3)c3ccc(Cl)cc23)cc1", "pIC50": 6.82}
{"Compound": "COc1ccc(SCS(=O)(=O)NCCc2c(CCOc3ccc(C(=O)O)cc3)c3cc(Cl)ccc3n2C(c2ccccc2)c2ccccc2)cc1OC", "pIC50": 6.22}
{"Compound": "O=C(O)c1ccc(OCCc2c(CCNS(=O)(=O)c3ccc(Cl)c(Cl)c3)n(C(c3ccccc3)c3ccccc3)c3ccc(Cl)cc23)cc1", "pIC50": 6.02}
{"Compound": "O=C(O)CCc1ccc(S(=O)(=O)CCc2c(CCNS(=O)(=O)Cc3ccccc3F)n(C(c3ccccc3)c3ccccc3)c3ccc(Cl)cc23)cc1", "pIC50": 6.70}

response.value for NS(=O)(=O)c1ccc(CS(=O)(=O)NCCc2c(CCOc3ccc(C(=O)O)cc3)c3cc(Cl)ccc3n2C(c2ccccc2)c2ccccc2)cc1 (field: pIC50) = 6.49

Query O=C(O)c1ccc(OCCc2c(CCNS(=O)(=O)CC3CCCCO3)n(C(c3ccccc3)c3ccccc3)c3ccc(Cl)cc23)cc1 (stereo not drawn) yields pIC50 of 6.40

---

- Tested On: cPLA2 (Homo sapiens)
- Sequence (P47712 1-749): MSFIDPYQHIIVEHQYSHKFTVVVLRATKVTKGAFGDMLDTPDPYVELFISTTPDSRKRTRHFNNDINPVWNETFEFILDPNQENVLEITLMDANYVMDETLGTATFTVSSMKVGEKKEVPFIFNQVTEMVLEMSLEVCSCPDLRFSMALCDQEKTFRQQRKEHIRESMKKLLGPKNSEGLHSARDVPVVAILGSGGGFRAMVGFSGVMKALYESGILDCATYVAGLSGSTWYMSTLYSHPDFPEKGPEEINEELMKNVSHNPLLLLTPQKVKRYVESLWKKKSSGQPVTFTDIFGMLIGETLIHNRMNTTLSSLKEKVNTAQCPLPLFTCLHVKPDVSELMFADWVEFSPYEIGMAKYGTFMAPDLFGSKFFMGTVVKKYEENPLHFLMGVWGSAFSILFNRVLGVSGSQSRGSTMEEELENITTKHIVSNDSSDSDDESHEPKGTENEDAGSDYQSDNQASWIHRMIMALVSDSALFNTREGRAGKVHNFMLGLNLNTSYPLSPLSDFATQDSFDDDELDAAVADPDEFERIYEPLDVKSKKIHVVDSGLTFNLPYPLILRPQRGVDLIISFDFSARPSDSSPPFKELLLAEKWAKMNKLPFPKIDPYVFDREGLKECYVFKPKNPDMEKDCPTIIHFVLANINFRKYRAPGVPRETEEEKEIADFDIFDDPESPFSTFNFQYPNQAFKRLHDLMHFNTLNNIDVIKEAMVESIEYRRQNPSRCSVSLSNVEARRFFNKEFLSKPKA
Measured pIC50, listed per entry.
Formally, pIC50 is defined as -log10 of the concentration c, with c in mol/L.

{"Compound": "O=C(O)c1ccc(CCCc2c(CCNS(=O)(=O)Cc3ccccn3)n(C(c3ccccc3)c3ccccc3)c3ccc(Cl)cc23)cc1", "Tested On": "cPLA2 (Homo sapiens)", "pIC50": 6.47}
{"Compound": "O=C(O)c1ccc(OCCc2c(CCNS(=O)(=O)Cc3c(Cl)cccc3Cl)n(C(c3ccccc3)c3ccccc3)c3ccc(Cl)cc23)cc1 [Example 73]", "Tested On": "cPLA2 (Homo sapiens)", "pIC50": 6.52}

Form: compound = COc1ccccc1SCS(=O)(=O)NCCc1c(CCOc2ccc(C(=O)O)cc2)c2cc(Cl)ccc2n1C(c1ccccc1)c1ccccc1 ; pIC50 = 6.35

The measured pIC50 associated with COc1cccc(CS(=O)(=O)NCCc2c(CCOc3ccc(C(=O)O)cc3)c3cc(Cl)ccc3n2C(c2ccccc2)c2ccccc2)c1 reads 6.32

Every entry's value here was drawn from patent US6635771B2.
